This collection of values is drawn from patent US20190194179A1.

Test system: Neisseria gonorrhoeae
PROTOCOL_DESCRIPTION: EC50 determination: plate-based broth growth assay (absorbance at 600 nm) of Neisseria gonorrhoeae
Assay type: cell-based
RECORDED_CONDITIONS: absorbance 600 nm after 20 hours at 37° C./5% CO2, read-out: IC50 (Inhibitory concentration) against Neisseria gonorrhoeae
Description: Actively growing Neisseria gonorrhoeae on GC agar (based on; Spence et. al. (2008): Curr. Protoc. Microbiol. 8:4A.1.1-4A.1.26) plates are harvested and transferred to GC broth (based on; Spence et al (2008): Curr. Protoc. Microbiol. 8:4A.1.1-4A.1.26) to generate a liquid stock. […] EC50 values were determined by assaying growth (absorbance read at 600 nm, after 20 hours at 37° C./5% CO2) of Neisseria gonorrhoeae across a 10-point dilution series of the test compound. […]
MEASURED_METRIC: IC50

Solved cases (3 shown):
Enquiry: Consider the molecule shown here: FC(F)(F)c1ccc2oc(Nc3nnc(CN4CCCCC4)o3)nc2c1 [Example 72] What is its recorded IC50?
Return: ≤ 1000 nM

Enquiry: # lookup: IC50 of Clc1ccc2nc(Nc3ccsn3)oc2c1 [Example 222]
Return: ≤ 1000 nM

Enquiry: Quick one: IC50 for Cc1nnc(Nc2nc3cc(C(F)(F)F)c(Cl)cc3[nH]2)[nH]1 [Example 153] ?
Return: ≤ 10000 nM

Consider the record given below.
Enquiry: Requested field: IC50. Item: Cn1cnc(Nc2nc3cc(C(F)(F)F)c(Cl)cc3o2)c1 [Example 140]
Return: ≤ 1000 nM
